The reported measurements were obtained from the supplement of paper PMC6555819.

- Test system: VDR homodimer (NR concentration 270 nM)
- assay method text: PBM binding z-score (relative to random genomic background probes); higher = stronger binding; sequences stand for … in GC…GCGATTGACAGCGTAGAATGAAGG
quantity measured: PBM binding z-score

I need PBM binding z-score for every entry listed below, if you could help.
1. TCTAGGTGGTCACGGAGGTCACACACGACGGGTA
2. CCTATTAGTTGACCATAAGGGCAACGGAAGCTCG
3. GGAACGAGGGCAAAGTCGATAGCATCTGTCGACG
4. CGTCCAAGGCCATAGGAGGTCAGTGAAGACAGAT
5. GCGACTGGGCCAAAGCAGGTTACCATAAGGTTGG
6. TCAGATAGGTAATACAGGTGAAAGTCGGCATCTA
7. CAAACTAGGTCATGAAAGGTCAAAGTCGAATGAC

1: 3.08; 2: 0.902; 3: 1.19; 4: 1.42; 5: -0.503; 6: 0.187; 7: 4.05

I need PBM binding z-score for every entry listed below, if you could help.
1. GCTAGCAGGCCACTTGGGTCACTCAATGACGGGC
2. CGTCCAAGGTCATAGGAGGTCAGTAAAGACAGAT
3. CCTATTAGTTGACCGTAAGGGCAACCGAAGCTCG
4. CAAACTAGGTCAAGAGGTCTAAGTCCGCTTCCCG

1. 0.24
2. 4.5
3. 1.06
4. 1.23

I need PBM binding z-score for every entry listed below, if you could help.
1. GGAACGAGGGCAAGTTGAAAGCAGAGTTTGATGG
2. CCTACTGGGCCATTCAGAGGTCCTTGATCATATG
3. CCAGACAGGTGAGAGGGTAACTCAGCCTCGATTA
4. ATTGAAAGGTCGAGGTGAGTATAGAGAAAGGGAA
5. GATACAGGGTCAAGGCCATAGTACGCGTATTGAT
6. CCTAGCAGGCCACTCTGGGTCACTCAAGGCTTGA
7. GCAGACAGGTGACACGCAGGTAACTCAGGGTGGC

1: 1.92; 2: -0.336; 3: 0.287; 4: 1.18; 5: 2.22; 6: 0.081; 7: -0.397

I need PBM binding z-score for every entry listed below, if you could help.
1. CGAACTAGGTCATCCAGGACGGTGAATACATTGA
2. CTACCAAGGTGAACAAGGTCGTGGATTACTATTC
3. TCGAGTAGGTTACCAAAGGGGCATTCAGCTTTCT

1.3
1.27
0.0103

I need PBM binding z-score for every entry listed below, if you could help.
1. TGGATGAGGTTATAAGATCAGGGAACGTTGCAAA
2. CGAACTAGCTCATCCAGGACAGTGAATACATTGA
3. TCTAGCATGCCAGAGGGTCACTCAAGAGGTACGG
4. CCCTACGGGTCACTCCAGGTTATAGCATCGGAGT
5. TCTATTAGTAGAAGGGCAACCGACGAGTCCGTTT

1: 0.65; 2: 0.271; 3: 0.555; 4: 1.79; 5: 1.18
